Hey, just so you know, these numbers are from patent US7132456B2.

Molecular target: human MCHR1 (Homo sapiens)
Construct: The full-length cDNA for human MCHR1 was cloned; expressed in transfected cells; host or cells: AV12 cells previously transfected with Gα15
Assay: 125I-MCH competitive binding assay on clone 43 membranes (MCHR1 binding)
Conditions: competitive binding vs 100 pM 125I-MCH, clone 43 membranes (AV12 cells expressing MCHR1); Ki from IC50 by Cheng-Prusoff; tested in duplicate; read-out: MCHr Binding Ki
reported.metric: Ki (µM)

compound	unit.string	endpoint.result
CN(C)CCNC(=O)c1ccc(-c2cccc(CSCCOc3ccccc3)c2)cc1	µM	1.47

a: CN(C)CCCNC(=O)c1ccc(-c2cccc(CSCCOc3ccccc3)c2)cc1.O=C(O)C(=O)O [Example 15, oxalate]
b: CN(C)CCCNC(=O)c1ccc(-c2ccccc2CSCCOc2ccccc2)cc1
c: CN(C)CCNC(=O)c1cccc(-c2ccccc2CSCCOc2ccccc2)c1.O=C(O)C(=O)O [Example 20, oxalate]
### Prompt Ordering criterion: Ki; begin with the maximum. Give me the labels in the order the question wants.
### Response c, b, a
(c: 11.4 µM, b: 6.13 µM, a: 1.95 µM)

* * *

Quick reference: melting point of the listed items.
Structures can show the parent of a compound that is named as a salt.

molecule	melting point
CN(C)CCCCNC(=O)c1ccc(-c2cccc(CSCCOc3ccccc3)c2)cc1.O=C(O)C(=O)O [Example 16]	85 to 89 °C
CN(C)CCNC(=O)c1cccc(-c2ccccc2CSCCOc2ccccc2)c1.O=C(O)C(=O)O [Example 20]	96 to 100 °C
CN(C)CCNC(=O)c1ccc(-c2ccccc2CSCCOc2ccccc2)cc1 [Example 23]	93 to 96 °C
CN(C)CCCNC(=O)c1cccc(-c2ccc(CSCCOc3ccccc3)cc2)c1.O=C(O)C(=O)O [Example 1]	132 to 133.5 °C
CN(C)CCCCNC(=O)c1ccccc1-c1ccccc1CSCCOc1ccccc1.O=C(O)C(=O)O	64 to 70 °C
CN(C)CCCNC(=O)c1ccc(-c2ccc(CSCCOc3ccccc3)cc2)cc1 (as salt: hydrochloride)	112 to 115 °C
CN(C)CCCCNC(=O)c1ccccc1-c1ccc(CSCCOc2ccccc2)cc1.O=C(O)C(=O)O [Example 9]	72 to 76 °C
CN(C)CCNC(=O)c1cccc(-c2ccc(CSCCOc3ccccc3)cc2)c1.O=C(O)C(=O)O [Example 2]	88 to 93 °C
CN(C)CCNC(=O)c1ccccc1-c1ccccc1CSCCOc1ccccc1.O=C(O)C(=O)O	46 to 50 °C

For the next question, use this molecule.
molecule CN(C)CCCCNC(=O)c1cccc(-c2ccc(CSCCOc3ccccc3)cc2)c1.O=C(O)C(=O)O [Example 3] , melting point observed: 144 to 147 °C

* * *

Biological target: human MCHR1 (Homo sapiens, UniProt Q99705)
Construct: The full-length cDNA for human MCHR1 was cloned; expressed in transfected cells; host or cells: AV12 cells previously transfected with Gα15
Sequence (Q99705 whole entry): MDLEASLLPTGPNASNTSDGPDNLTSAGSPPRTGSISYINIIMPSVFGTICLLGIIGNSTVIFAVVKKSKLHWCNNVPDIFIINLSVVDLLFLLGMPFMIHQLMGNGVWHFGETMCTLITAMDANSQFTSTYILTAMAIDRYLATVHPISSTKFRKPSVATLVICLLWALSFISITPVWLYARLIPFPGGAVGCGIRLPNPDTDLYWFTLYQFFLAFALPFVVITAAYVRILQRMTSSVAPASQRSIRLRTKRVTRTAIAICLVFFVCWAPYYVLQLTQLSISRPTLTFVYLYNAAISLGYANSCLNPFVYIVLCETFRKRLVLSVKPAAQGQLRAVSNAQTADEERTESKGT
Test: 125I-MCH competitive binding assay on clone 43 membranes (MCHR1 binding)
Conditions: competitive binding vs 100 pM 125I-MCH, clone 43 membranes (AV12 cells expressing MCHR1); Ki from IC50 by Cheng-Prusoff; tested in duplicate; read-out: MCHr Binding Ki
reported.metric: Ki (µM)

P: CN(C)CCCCNC(=O)c1ccccc1-c1ccc(CSCCOc2ccccc2)cc1.O=C(O)C(=O)O [Example 9, oxalate]
Q: CN(C)CCCCNC(=O)c1ccc(-c2ccc(CSCCOc3ccccc3)cc2)cc1.O=C(O)C(=O)O [Example 6, oxalate]
R: CN(C)CCCCNC(=O)c1ccc(-c2ccccc2CSCCOc2ccccc2)cc1
### Prompt // sort listed items: Ki descending Give me the labels in the order the question wants.
### Response P, Q, R
